# experiment_description: chemical genetic growth profiling, strain panel (AID 1159580);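 further: tested at 20 µM; growth read once vehicle control cultures reached saturation at 30 °C; 1 = growth at the plate median or of vehicle wells; lower values mean less growth of the strain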
# test_parameters: S. cerevisiae deletion strains, growth OD, locus YOL147C, strain pex11, active compounds read low
Hit rate of the full screen: of about 5,500 compounds, about 2,000 (36%) were called active. Roughly 18% stayed inconclusive and do not appear here. This is one part of the list. Where a SMILES comes first, the peptide text is derived from it. The star is where a group is joined. For = O=C*
label 1 if normalized growth is below 1. label 0 if not; exact matches included in label 0.

- molecule: "CSCCC(NC=O)C(=O)NC(Cc1ccccc1)C(=O)O (stereo not drawn) (For-Met-Phe-OH; configuration not given here)"
  label: "label 0"
- molecule: "O=c1oc2cc(O)ccc2s1"
  label: "label 1"

====

# experiment_description: chemical genetic growth profiling, strain panel (AID 1159580)
# test_parameters: S. cerevisiae deletion strains, growth OD, locus YNL271C, strain bni1, active compounds read low
Hit rate of the full screen: of about 5,500 compounds, about 2,000 (36%) were called active. Inconclusive results (about 18%) are left out. The list shows a part of the results.

- molecule: "NC(N)=N/N=C/c1c(Cl)cccc1Cl"
  normalized growth: 1.02
- molecule: "OC(CCN1CCCC1)(c1ccccc1)C1CCCCC1 (stereo not given)"
  normalized growth: 0.987
- molecule: "CC(=O)NC(C(=O)O)C(C)(C)SN=O (stereo not given)"
  normalized growth: 1
- molecule: "CC1(C)CC[C@]2(C(=O)O)CC[C@]3(C)C(=CCC4[C@@]5(C)CC[C@H](O)[C@@](C)(CO)C5CC[C@]43C)C2C1 (stereo not given in full)"
  normalized growth: 0.983
- molecule: "CC(=O)OC1CC[C@@]2(C)C(CC[C@]3(C)C2CCC2C4CC(C)(C)CCC4(C(=O)O)CC[C@]23C)C1(C)C (stereo not given in full)"
  normalized growth: 0.995

====

# experiment_description: chemical genetic growth profiling, strain panel (AID 1159580)
# test_parameters: S. cerevisiae deletion strains, growth OD, locus YNL250W, strain rad50, active compounds read low
The campaign covered roughly 5,500 compounds. About 2,000 (36%) were called active. Another 18% or so got no clear call; they are omitted. Some of the results follow.
Condition met if normalized growth is below 1. Condition not met if not; exact matches included in Condition not met.

- molecule: "CC(=O)O[C@@H]1CC[C@@]2(C)C(CC[C@]3(C)C2CC=C2C4CC(C)(C)CC[C@]4(C(=O)O)CC[C@]23C)C1(C)C (some centres not stated)"
  label: "Condition met"
- molecule: "NC(N)=N/N=C/c1c(Cl)cccc1Cl"
  label: "Condition not met"
- molecule: "CC(C)=CCCC1(C)C=Cc2c(O)c3c(c(CC=C(C)C)c2O1)OC12C(=CC4CC1C(C)(C)OC2(C/C=C(/C)C(=O)O)C4=O)C3=O (configuration not stated)"
  label: "Condition met"

====

# experiment_description: chemical genetic growth profiling, strain panel (AID 1159580);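 further: tested at 20 µM; growth read once vehicle control cultures reached saturation at 30 °C; 1 = growth at the plate median or of vehicle wells; lower values mean less growth of the strain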
# test_parameters: S. cerevisiae deletion strains, growth OD, locus YNL322C, strain KRE1, active compounds read low
The campaign covered roughly 5,500 compounds. About 2,000 (36%) were called active. Roughly 18% stayed inconclusive and do not appear here. This is one part of the list.

- compound: "CC(C)C(=O)c1c(C(C)C)nn2ccccc12"
  normalized growth: "0.985 (inactive)"
- compound: "Cc1cn([C@H]2C[C@H](N=[N+]=[N-])[C@@H](CO)O2)c(=O)[nH]c1=O"
  normalized growth: "1 (inactive)"
- compound: "O=[N+]([O-])c1cc(Cl)ccc1S(=O)(=O)c1ccccc1"
  normalized growth: "0.987 (inactive)"
- compound: "CC(C)(C)c1ccc(-c2n[nH]c(=S)n2-c2cccc(C(F)(F)F)c2)cc1"
  normalized growth: "1.01 (inactive)"
- compound: "COc1ccc(-c2n[nH]c(=S)n2-c2cccc(OC)c2)cc1"
  normalized growth: "0.978 (inactive)"
- compound: "O=[N+]([O-])c1ccc(S(=O)(=O)c2ccc(Cl)cc2)cc1O"
  normalized growth: "0.86 (active)"
- compound: "C/C=C(/C)C(=O)OC1CCC2(C)C3CCC4C5(O)CC(O)C6(O)C(CN7CC(C)CCC7C6(C)O)C5(O)CC42OC13O (centres undefined)"
  normalized growth: "0.947 (inactive)"
- compound: "Cc1ccnc(NS(=O)(=O)c2ccc(N)cc2)n1"
  normalized growth: "1 (inactive)"
- compound: "CC(C)(C)c1o[nH]c(=O)c1CC(N)C(=O)O (centres undefined)"
  normalized growth: "0.997 (inactive)"
- compound: "NC12CC3CC(CC(C3)C1)C2"
  normalized growth: "1 (inactive)"
- compound: "C[C@@H]1CC[C@H]2[C@@H](C)C(O)O[C@@H]3O[C@@]4(C)CC[C@@H]1[C@]32OO4 (some centres undefined)"
  normalized growth: "0.349 (active)"
- compound: "CCC(C)C(=O)O[C@H]1[C@H](O)C2C(CN3CC(C)CCC3[C@@]2(C)O)C2C[C@]34O[C@]5(O)C(OC(=O)C(C)(O)CC)CC[C@@]3(C)C5C(OC(C)=O)[C@@H](OC(C)=O)C4[C@@]21O (some centres undefined)"
  normalized growth: "1.01 (inactive)"
- compound: "C[C@@H]1C(=O)O[C@H]2[C@H]1CC[C@@]1(C)C=CC(=O)[C@@]3(C)O[C@@]213"
  normalized growth: "1.01 (inactive)"
- compound: "CCOC(=O)OC(C)OC(=O)C1N2C(=O)C(NC(=O)[C@H](N)c3ccccc3)C2SC1(C)C (some centres undefined)"
  normalized growth: "0.985 (inactive)"
- compound: "COc1cc(C(=O)O[C@H]2CC[C@@]3(C)[C@@H]4CC[C@H]5[C@]6(O)C[C@H](O)[C@@]7(O)[C@@H](CN8C[C@@H](C)CC[C@H]8[C@@]7(C)O)[C@]6(O)C[C@@]53O[C@]24O)cc(OC)c1OC"
  normalized growth: "0.996 (inactive)"
- compound: "CC(OCc1ccccc1)C(NC(=O)OC(C)(C)C)C(N)=O (centres undefined)"
  normalized growth: "0.985 (inactive)"
- compound: "COc1ccc(C(=O)CN2CCN(c3cc(C)nc4ccccc34)CC2)cc1"
  normalized growth: "0.998 (inactive)"
- compound: "COc1ccc(Oc2cc(C)nc3ccccc23)cc1"
  normalized growth: "1.01 (inactive)"
- compound: "Nc1c2ccccc2nc2ccccc12 (tested in a mixture with another compound)"
  normalized growth: "0.771 (active)"

====

# experiment_description: chemical genetic growth profiling, strain panel (AID 1159580);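 further: tested at 20 µM; growth read once vehicle control cultures reached saturation at 30 °C; 1 = growth at the plate median or of vehicle wells; lower values mean less growth of the strain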
# test_parameters: S. cerevisiae deletion strains, growth OD, locus YGL173C, strain kem1, active compounds read low
Screen size: about 5,500 compounds; about 2,000 (36%) were called active. Another 18% or so got no clear call; they are omitted. The list shows a part of the results.
As shown below, each of these compounds has a reported normalized growth value.

- compound: "CC(C)CC(N(C)C)C1(c2ccc(Cl)cc2)CCC1 (stereo not given)"
  normalized growth: 1
- compound: "CC(C)(C#N)O[C@@H]1O[C@H](CO)[C@@H](O)[C@H](O)[C@H]1O"
  normalized growth: 1
- compound: "COC(=O)Nc1nc2ccc(C(=O)c3ccccc3)cc2[nH]1"
  normalized growth: 0.981
- compound: "CC1=NS(=O)(=O)c2cc(Cl)ccc2N1"
  normalized growth: 0.995
- compound: "CCC(C)C(NC)C(=O)O (stereo not given)"
  normalized growth: 1.03
- compound: "COC(=O)Nc1nc2ccc(S(=O)c3ccccc3)cc2[nH]1 (stereo not given)"
  normalized growth: 0.991
- compound: "N#CC(O[C@@H]1O[C@H](CO[C@@H]2O[C@H](CO)[C@@H](O)[C@H](O)[C@H]2O)[C@@H](O)[C@H](O)[C@H]1O)c1ccccc1 (stereo not given in full)"
  normalized growth: 0.963
- compound: "COC(=O)Nc1nc2ccc(Sc3ccccc3)cc2[nH]1"
  normalized growth: 0.991
- compound: "CCN1C[C@]2(OC(=O)c3ccccc3NC(C)=O)CCC(OC)[C@]34C1[C@H](CC23)[C@@]1(O)CC(OC)[C@H]2CC4C1(O)[C@H]2OC (stereo not given in full)"
  normalized growth: 0.972
- compound: "C[C@@H]1C(=O)O[C@H]2[C@H]1CC[C@@]1(C)C=CC(=O)[C@@]3(C)O[C@@]213"
  normalized growth: 1.02

====

# experiment_description: chemical genetic growth profiling, strain panel (AID 1159580);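 further: tested at 20 µM; growth read once vehicle control cultures reached saturation at 30 °C; 1 = growth at the plate median or of vehicle wells; lower values mean less growth of the strain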
# test_parameters: S. cerevisiae deletion strains, growth OD, locus YNL175C, strain NOP13, active compounds read low
Out of some 5,500 compounds screened, about 2,000 (36%) were called active. Another 18% or so got no clear call; they are omitted. Some of the results follow.
As shown below, each of these compounds has a reported normalized growth value.
assay_readout: normalized growth

- compound: "COc1cc(-c2ccc(=O)[nH]n2)ccc1OC(F)F"
  result_number: 1.03
- compound: "CCCOc1ccccc1-c1nc2n[nH]nc2c(=O)[nH]1"
  result_number: 1.02
- compound: "NCC#Cc1ccccc1"
  result_number: 1.01
- compound: "Cn1cnc2c(NCc3ccccc3)nc(NCCO)nc21"
  result_number: 1
- compound: "CC(N)C1CCC(C(=O)Nc2ccncc2)CC1 (configuration not stated)"
  result_number: 0.992
- compound: "CC(C)(C=O)Cc1cc(C(C)(C)C)c(O)c(C(C)(C)C)c1"
  result_number: 1.02
- compound: "CC(=O)OCC(=O)[C@@]1(O)CC[C@H]2[C@@H]3CCC4=CC(=O)CC[C@]4(C)[C@H]3C(=O)C[C@@]21C"
  result_number: 0.985
- compound: "CCN1CCC[C@H]1CNC(=O)c1cc(S(N)(=O)=O)ccc1OC"
  result_number: 1
- compound: "CCNC(=O)C1OC(n2cnc3c(NCc4ccccc4)ncnc32)C(O)C1O (configuration not stated)"
  result_number: 0.967
- compound: "C[C@@H](N)Cc1cnc[nH]1"
  result_number: 1.01
- compound: "COc1ccc2[nH]c3c(c2c1)CCNC3"
  result_number: 0.985
- compound: "NC12CC3CC(CC(C3)C1)C2"
  result_number: 0.996
